- experimental.target: HA H5 A/Vietnam/1203/04 (Influenza A virus (A/Vietnam/1203/2004(H5N1)), UniProt Q5EP31)
- run.description: biochemical
- experimental.setup: Competition binding (AlphaLISA), pIC50 H5 A/Vietnam/1203/04
measured.quantity: IC50 (nM)
Value expressed in nM; do not type the unit.

molecule | units.text | IC50
COC(=O)[C@@H](c1ccccc1)C1CCN(C(=O)c2cccc(-c3nc4ccc(OC)cc4s3)c2)CC1 | nM | 631
CC(=O)Nc1ccc2oc(-c3cccc(C(=O)N4CCN(C(c5ccccc5)c5n[nH]c(C)n5)CC4)c3)nc2c1 (stereo not shown) | nM | 501
COC(=O)C(c1ccccc1)N1CCN(C(=O)c2cccc(-c3nc4cc(N(C)C)ccc4o3)c2)CC1 (stereo not shown) | nM | 316

Now turn to the next molecule.
Exercise: Please report IC50 with HA H5 A/Vietnam/1203/04 (Influenza A virus (A/Vietnam/1203/2004(H5N1)), UniProt Q5EP31) for item COC(=O)C(c1ccccc1)N1CCN(C(=O)c2cccc(NC(=O)c3ccc(OC)cc3)c2)CC1 (stereo not shown) .
Solution: 1260

* * *

- experimental.target: HA H1 A/California/07/09 (Influenza A virus (A/California/07/2009(H1N1)), UniProt C3W5X2)
- run.description: biochemical
- experimental.setup: Competition binding (AlphaLISA), pIC50 H1 A/California/07/09
measured.quantity: IC50 (nM)
Value expressed in nM; do not type the unit.

Study these solved cases before continuing.
compound | numeric.value
CCc1nnc(C(c2ccccc2)N2CCN(C(=O)c3cccc(-c4nc5cc(C(F)(F)F)ccc5o4)c3)CC2)o1 (stereo not drawn) | 79.4
COc1ccc2nc(-c3cccc(C(=O)N4CCN(C(c5ccccc5)c5nncs5)CC4)c3)sc2c1 (stereo not drawn) | 398
COC(=O)C(c1ccccc1)N1CCN(C(=O)c2cccc(-c3nc4ccncc4o3)c2)CC1 (stereo not drawn) | 31.6
COC(=O)C(c1ccccc1)N1CCN(C(=O)c2cccc(-c3nc4cccnc4o3)c2)CC1 (stereo not drawn) | 63.1
COC(=O)C(c1ccccc1)N1CCN(C(=O)c2cc(-c3nc4ccc(OC)cc4s3)ccn2)CC1 (stereo not drawn) | 20

Exercise: Name the recorded IC50 of the item COc1ccc2nc(-c3cccc(C(=O)N4CCN(C(C(=O)NCCCN)c5ccccc5)CC4)c3)sc2c1 (stereo not drawn) in your answer.
Solution: 63.1

Exercise: Name the recorded IC50 of the item COC(=O)C(c1ccccc1)N1CCN(C(=O)c2cccc(-c3ccc(OC)cc3)c2)CC1 (stereo not drawn) [Example 128] in your answer.
Solution: 251

Exercise: Name the recorded IC50 of the item Cc1nnc(C(c2ccccc2)N2CCN(C(=O)c3cccc(-c4nc5cccnc5o4)c3)CC2)o1 (stereo not drawn) in your answer.
Solution: 631

* * *

- experimental.target: HA H1 A/New Caledonia/20/99 (Influenza A virus (A/New Caledonia/20/1999(H1N1)))
- run.description: biochemical
- experimental.setup: Competition binding (AlphaLISA), pIC50 H1 A/New Caledonia/20/99
pIC50: −log10 of the molar value.
Classify as follows. Reported pIC50 greater than or equal to 7: Fulfilled. Reported pIC50 below: Not fulfilled.

compound | experimental.target | class.assignment
Cc1nnc([C@@H](c2ccccc2)N2CCN(C(=O)c3cccc(-c4ccc5ccccc5n4)c3)CC2)o1 [Example 112] | HA H1 A/New Caledonia/20/99 (Influenza A virus (A/New Caledonia/20/1999(H1N1))) | Not fulfilled

Exercise: Check this compound for pIC50 at or above 7: COC(=O)C(c1ccccc1)N1CCN(C(=O)c2cccc(-c3nc4cc(OC)ccc4o3)c2)CC1 (stereo not shown) [Example 13]
Solution: Fulfilled

Exercise: Check this compound for pIC50 at or above 7: COC(=O)C(c1ccccc1)N1CCN(C(=O)c2cccc(-c3nc4ccc(OC)cc4o3)c2)CC1 (stereo not shown) [Example 60]
Solution: Fulfilled

Exercise: Check this compound for pIC50 at or above 7: CC(=O)Nc1ccc2oc(-c3ccnc(C(=O)N4CCN([C@H](c5ccccc5)c5nnc(C)o5)CC4)c3)nc2c1 [Example 15]
Solution: Fulfilled

Exercise: Check this compound for pIC50 at or above 7: COC(=O)[C@@H](c1ccccc1)N1CCN(C(=O)c2cccc(-c3nc4ccccc4s3)c2)CC1 [Example 33]
Solution: Fulfilled

Each recorded value in this set is attributed to patent US11040963B2.
